# method.description: chemical genetic growth profiling, strain panel (AID 1159580);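 note: tested at 20 µM; growth read once vehicle control cultures reached saturation at 30 °C; 1 = growth at the plate median or of vehicle wells; lower values mean less growth of the strain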
# cond: S. cerevisiae deletion strains, growth OD, locus YLR113W, strain HOG1, stronger effect = lower value
About 2,000 (36%) of roughly 5,500 compounds were called active. Not shown: some 18% with an inconclusive outcome. The list shows a part of the results.
property.label: normalized growth

cpd_smiles=COc1c2ccccc2nc2occc12 meas_value=0.872
cpd_smiles=Cc1nc2ccccn2c(=O)c1CCN1CCC(C(=O)c2ccc(F)cc2)CC1 meas_value=1.01
cpd_smiles=Cc1nc2sccn2c(=O)c1CCN1CCC(=C(c2ccc(F)cc2)c2ccc(F)cc2)CC1 meas_value=0.979
cpd_smiles=Nc1ccncc1 meas_value=0.958
cpd_smiles=O=C(O)Cc1cc(I)c(Oc2cc(I)c(O)c(I)c2)c(I)c1 meas_value=0.418
cpd_smiles=CN(C)C(=O)Nc1ccc(Cl)c(Cl)c1 meas_value=0.909
